# Organism: Rattus norvegicus
# TEST SUMMARY: DrugMatrix - Regimen: Daily Repeat
# Assay type: toxicity, organism-based, Sprague-Dawley
# Design: regimen Daily Repeat, gender Male, age 6-8 weeks
# CONDITIONS: in vivo, po, 0 mg/kg, 120 h, tissue Plasma, route oral GAVAGE, dose level Control, time 5 day, […]
# if value of ALBUMIN reaches 4 G/DL, tag Fulfilled; if it stays below, tag Not fulfilled

# count of solved cases: 5
O=c1oc2ccccc2c(O)c1Cc1c(O)c2ccccc2oc1=O [DICUMAROL]	Fulfilled
O=NN(CCCl)C(=O)NC1CCCCC1 [LOMUSTINE]	Not fulfilled
CC(C)(Oc1ccc(Cl)cc1)C(=O)O [CLOFIBRIC ACID]	Fulfilled
C[C@@H]1CN(c2c(F)c(N)c3c(=O)c(C(=O)O)cn(C4CC4)c3c2F)C[C@H](C)N1 [SPARFLOXACIN]	Not fulfilled
CN(C)c1nc(N(C)C)nc(N(C)C)n1 [ALTRETAMINE]	Not fulfilled

**Query** Is the recorded value of ALBUMIN equal to or greater than 4 G/DL for this molecule? CC(C)C(=O)Nc1ccc([N+](=O)[O-])c(C(F)(F)F)c1 [FLUTAMIDE]
**Result** Fulfilled

**Query** How about CCOC(=O)C1=C(COCCN)NC(C)=C(C(=O)OC)C1c1ccccc1Cl (centres undefined) [AMLODIPINE] ?
**Result** Not fulfilled

----------
# Organism: Rattus norvegicus
# TEST SUMMARY: DrugMatrix - Regimen: Daily Repeat
# Format: toxicity, organism-based, Sprague-Dawley
# Set-up: regimen Daily Repeat, gender Male, age 6-8 weeks
# CONDITIONS: in vivo, iv, 0 mg/kg, 72 h, tissue Plasma, dose level Control, time 3 day, vehicle 100 % SALINE
Starred links: 1 amine or outer side, 2 acyl side, 3 side chain; linkers in the order of their positions; H or OH if unused. Positions of bridges follow the written chain, without caps; N, C: chain ends. Non-standard residues stand in square brackets, D forms with d. Residues, ends and D or L forms follow the SMILES beside them. Chains are numbered I, II in the order given. Actinocin(9to1) = Cc1c2oc3c(C)ccc(C(=O)[*:1])c3nc-2c(C(=O)[*:2])c(N)c1=O; NMeV = CN[C@H](C(=O)O)C(C)C; Sar = CNCC(=O)O
METRIC: CREATINE PHOSPHOKINASE (u/L)
State just the number; it will be interpreted in u/L.

Solved entries:
Cc1ccc(N(CC2=NCCN2)c2cccc(O)c2)cc1	207.83
CC[C@]1(O)C[C@H]2CN(CCc3c([nH]c4ccccc34)[C@@](C(=O)OC)(c3cc4c(cc3OC)N(C=O)[C@H]3[C@@](O)(C(=O)OC)[C@H](OC(C)=O)[C@]5(CC)C=CCN6CC[C@]43[C@@H]65)C2)C1	316.5
COc1cc2c3cc1Oc1cc(ccc1O)C[C@@H]1c4c(cc(OC)c(O)c4Oc4ccc(cc4)C[C@@H]3N(C)CC2)CC[N+]1(C)C.[Cl-]	748.5

# evaluate next
**Query** Fill in the blank: the reported CREATINE PHOSPHOKINASE of Cc1c2oc3c(C)ccc(C(=O)N[C@@H]4C(=O)N[C@H](C(C)C)C(=O)N5CCC[C@H]5C(=O)N(C)CC(=O)N(C)[C@@H](C(C)C)C(=O)O[C@@H]4C)c3nc-2c(C(=O)N[C@@H]2C(=O)N[C@H](C(C)C)C(=O)N3CCC[C@H]3C(=O)N(C)CC(=O)N(C)[C@@H](C(C)C)C(=O)O[C@@H]2C)c(N)c1=O [DACTINOMYCIN] (I: T[dV]P[Sar][NMeV] / II: T[dV]P[Sar][NMeV]; ester I:1-I:C, II:1-II:C; linker I:N-II:N via Actinocin(9to1)) is ____.
**Result** 494.67
